Procedure summary: NCI Yeast Anticancer Drug Screen. Data for the rad18 strain (AID 177)
Experimental setup: S. cerevisiae rad18 mutant growth inhibition; at 3.7 µM; active compounds read high
About 79,000 compounds went through this panel and 15% of them were active in at least one assay; those are over-represented in the sample as a whole.
Attribute measured: growth inhibition (%)

In [3]: df
Out[3]:
                                   molecule  attribute_measured  measured_number
0             c1c(N2CCOCC2)ssc1=[N+]1CCOCC1   growth inhibition               -2
1  COC(=O)C1=C(C(=O)OC)SC2(S1)C(C(=O)OC)=C(C(=O)OC)Sc1c2ssc1=O   growth inhibition               55
2  CCC1(O)C(=O)OCc2c1cc1n(c2=O)Cc2c-1nc1ccccc1c2OC (stereo not given)   growth inhibition               -4
3  Cc1cc[n+](C2=C(Nc3cccc(C(F)(F)F)c3)C(=O)c3ccccc3C2=O)cc1   growth inhibition               -1
4  COC(=O)C1c2cc3c(c(O)c2C(O)CC1(C)O)C(=O)c1c(O)cc2c(c1C3=O)OC1OC2(C)C(O)C(N(C)C)C1O (stereo not given)   growth inhibition               13
